assay_method_text: M. tuberculosis growth inhibition, HTS (AID 1259417);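 note: bacteria grown with compound for 5 days at 37 °C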
cond: M. tuberculosis DsRed fluorescence growth inhibition; concentration not given here
The whole screen tested about 1,100 compounds, of which about 760 (69%) were called active. The rule behind the calls is not given here. So high a share suggests a set chosen from earlier hits. This is one part of the list.
Respond with a class label; see 1.0 = active, 0.0 = inactive

## Input What call does the record list for CN(Cc1ccccc1)C(=S)NC(=O)c1cccs1 ?
## Output 1.0

## Input Could you do the same for CC(C)COc1ccc(-c2nn(-c3ccccc3)cc2C(=O)Nc2nccs2)cc1 , please?
## Output 0.0

## Input Could you do the same for Cc1ccc(NC(=O)C(C)NS(=O)(=O)c2ccc(Cl)cc2)cc1Cl (configuration not stated) , please?
## Output 0.0

## Input Could you do the same for O=C(Nc1nnc(-c2ccccc2)o1)c1ccco1 , please?
## Output 1.0

## Input Could you do the same for C=CCc1cc(C)ccc1OCCCn1ccnc1 , please?
## Output 1.0

## Input Could you do the same for N#CCCN(Cc1ccccc1)C(=S)NC(=O)c1ccccc1 , please?
## Output 0.0

## Input Could you do the same for Cc1cc2ncn(Cc3ccc(C(C)C)cc3)c2cc1C , please?
## Output 1.0

## Input Could you do the same for CC(NS(=O)(=O)c1cccc(Cl)c1)C(=O)Nc1ccc(Br)cc1F (configuration not stated) , please?
## Output 0.0

## Input Could you do the same for c1ccc2c(NCCc3c[nH]c4ccccc34)c3ccccc3nc2c1 , please?
## Output 1.0

## Input Could you do the same for C=CCc1cc(C)ccc1OCCCCn1ccnc1 , please?
## Output 1.0

## Input Could you do the same for CCn1ccnc1CN(C)Cc1cn(-c2ccc(C)cc2)nc1-c1cccc(C)c1 , please?
## Output 0.0

## Input Could you do the same for Cc1cc(Cl)ccc1NC(=O)CCc1ccc(S(=O)(=O)NC(C)C)cc1 , please?
## Output 1.0
